Kindly state apparent KD of MS2 coat protein for each of the entries shown.
test system: MS2 coat protein; test: apparent KD of MS2 coat protein; designed switch direction (-1 OFF switch, 1 ON switch): -1; higher = weaker reporter binding; conditions: input ligand: none

According to the records, this sequence AGAGUGCUGCGAGGAUAUACAUGAGGAUCACCCAUGUUUACCUGUGAGGCAAAGCCUCACAGGUAGUAGAAGGCGCAGUACUCA [Mat - Exclusion NG 2 - Mod of JL - D43] (Eterna round: R96, puzzle: Exclusion NG 2) displays apparent KD of MS2 coat protein of 12.3 nM

Quick note, apparent KD of MS2 coat protein for UUAUCUACUGAGGAUAUUAUAUCACCCGACUGAUAAGAAGGCAGUACAUGAGGAUCACCCAUGUGGGUAGCCAU [Polaris10] (Eterna round: R97, puzzle: Exclusion 6) landed at 32.6 nM

For reference, reported apparent KD of MS2 coat protein for GCAGUUCGAGUUAGGAUAUGAUUAAAAUUCGGAUAUCAGAAGGAACUUGAGGAUCACCCAAGUAUAGAUGUUGC [JR_BMEx4_Sub059] (Eterna round: R97, puzzle: Brourd's mod of Exclusion 4) stands at 17.1 nM

Input UUGUGCACGCUGCGAUCCUACAUGAGGAUCACCCAUGUGGUCUGGUGGCGUGGGUCACCGGACUUGGCUCGUCUUGG [salish99_S_TOV1_R5_076] (Eterna round: R97, puzzle: Sensor, turn-off variant 1) . Output apparent KD of MS2 coat protein: 138 nM

----------
test system: MS2 coat protein; assay: apparent KD of MS2 coat protein; designed switch direction (-1 OFF switch, 1 ON switch): -1; higher = weaker reporter binding; conditions: Eterna round: R95; input ligand: none
measure: apparent KD of MS2 coat protein
Number first, unit second: that is the form wanted.

apparent KD of MS2 coat protein recorded for this sequence, AGUAACCGUCACGAAAGUGAUGGUUACACAAGCAAAUGUACAUGAGGAUCACCCAUGUCCUCAAUUGCUCGUCUUAU [Sensor 3 - 50] (puzzle: Sensor v3, turn-off variant 2) , is 137 nM

For reference, reported apparent KD of MS2 coat protein for GAUUAUGCAGGCUUUAGGGACAUGAGGAUCACCCAUGUUCGUCUUAUUGAUCUAGGUACGCUGACGUACCUAGAUCU [JL-sv1-2.34 Brourd mod] (puzzle: Sensor v3, turn-off variant 1) stands at 20.4 nM

For reference, reported apparent KD of MS2 coat protein for GAGGUGUUAGGAUAUCGGAGAUGGAGACCAACGGGAUGAGCCGAGAAGGAACAUGAGGAUCACCCAUGUAGGUG [JR_Exclu4_Sub032] (puzzle: Exclusion 4) stands at 763 nM

Short answer for UAUCGGCGGACCGAGGCUUUUUGCUCGUCUUAUGCUAUGACAUGAGGAUCACCCAUGUGGUGGUGGUCCGUUGUAGU [JL ViennaUCT Bitein mod 10] (puzzle: Sensor v3, turn-off variant 2) : apparent KD of MS2 coat protein was 48.1 nM

Just so you know, measured apparent KD of MS2 coat protein for CAUAAUUUUCGGAAUAUGUACAUGAGGAUCACCCAUGUGACGAGUUACAUGAUUAACAAGCUUUUUGCUCGUCUUAU [Sensor v3 - Turn-off variant 1 - 12] (puzzle: Sensor v3, turn-off variant 1) came out at 207 nM

Summary for this sequence, AAAUAACAAGCGAGAUCCUACAUGAGGAUCACCCAUGUGCUCGUCUUAACAAGUACUAUCACGAAAGUGAUAGUACA [Mat - Sensor v3 - turn-off var 1 - Eli Mod - D69] (puzzle: Sensor v3, turn-off variant 1) : apparent KD of MS2 coat protein is 12.1 nM

So for UUUAAUUUUUUUUUUUUACAAGCUUUUUGCUCGUCUUAUACAUGAGGAUCACCCAUGUAAAUGGAGGGUAAAUUAUC [JMF 83] (puzzle: Sensor v3, turn-off variant 2) , the logged apparent KD of MS2 coat protein turned out to be 11.1 nM

Quick note, apparent KD of MS2 coat protein for AAUUACAAGCAAAGAUCUUACAUGAGGAUCACCCAUGUGCUCGUUUUAUAAAGUACUAUCACGAAAGUGAUAGUACA [Mat - Sensor v3 - turn-off var 1 - Eli Mod - D95] (puzzle: Sensor v3, turn-off variant 1) landed at 26.3 nM

Lab note: UAAUAAAGUGUGAGGAUAUGCUGGUCCUUAGAUCAGCAGAAGGCACAUGAGGAUCACCCAUGUAAUAUAUAAAU [Mat - Exclusion 4 - JL Mod - D56] (puzzle: Brourd's mod of Exclusion 4) gave apparent KD of MS2 coat protein of 30.3 nM

Recorded apparent KD of MS2 coat protein (sequence GGUUGGCGAGGAUAUACAUGAGGAUCACCCAUGUGAGAGAAAAAAGUGAGGAAGAAAAGUAGAAGGCGCUGACA [salish99_ex3_r3_046] (puzzle: Exclusion 3) ): 54.1 nM

Just so you know, measured apparent KD of MS2 coat protein for GGUACUAACACGAAAGUGUUAGUACUGUAGGUUUGUGUUACAUGAGGAUCACCCAUGUCCUCAUAAGCUCGUCUUGU [JL-sv3-2.22 mat747 mod] (puzzle: Sensor v3, turn-off variant 2) came out at 347 nM

Value of apparent KD of MS2 coat protein reported for the sequence GAUUAUGCGAGCUUUAGGGACAUGAGGAUCACCCAUGUUCGUCUUAUUAGUCUAGGUGCACUGACAUACCUAAAUCU [JMF 90] (puzzle: Sensor v3, turn-off variant 1) is 18.3 nM

Briefly, apparent KD of MS2 coat protein measured for ACAAGCGAAAGGCUCGUCUUAUUUUUGUAGAGGUUCUAAACAUGAGGAUCACCCAUGUAGUGGCGAUGGUGGAGGUA [JR_SV3TOV2_Sub069] (puzzle: Sensor v3, turn-off variant 2) : 42.4 nM

Data point: AGUAACUAUCACGAAAGUGAUAGUUACAAAACAAGUGAAACAUGAGGAUCACCCAUGUCCUCAUUUGCUCGUCUUAU [Sensor 3 - 2] (puzzle: Sensor v3, turn-off variant 2) ; apparent KD of MS2 coat protein = 189 nM

Entry under test: UAAUACAAGUAAGGAUUCUACAUGAGGAUCACCCAUGUGCUCGUCUUAUAAAGUACUAUCACGAAAGUGAUAGUACU [Mat - Sensor v3 - turn-off var 1 - Eli Mod - D100] (puzzle: Sensor v3, turn-off variant 1) . Its apparent KD of MS2 coat protein was 22.5 nM

apparent KD of MS2 coat protein measured on UAUUAACAAGCAAGAUCCCACAUGAGGAUCACCCAUGUGCUCGUCUUAUAAGGUACUGUGACGAAAGUCACGGUACC [Sensor 3, v1 - 80] (puzzle: Sensor v3, turn-off variant 1) = 28 nM

apparent KD of MS2 coat protein reading for UAAUGCAAGCAAAGAUCUUACAUGAGGAUCACCCAUGUGCUCGUCUUAUAAAGUACUAUCACGAAAGUGAUAGUACA [Mat - Sensor v3 - turn-off var 1 - Eli Mod - D91] (puzzle: Sensor v3, turn-off variant 1) : 26.3 nM

Sample UUUAAUUUUUUUUUUUUACAAGCUUUUUGCUCGUCUUAUACAUGAGGAUCACCCAUGUAAAUGGAGGAUAAAUUAUC [JMF 29] (puzzle: Sensor v3, turn-off variant 2) ; apparent KD of MS2 coat protein observed: 19.7 nM

----------
system: MS2 coat protein; experiment: apparent KD of MS2 coat protein; designed switch direction (-1 OFF switch, 1 ON switch): -1; higher = weaker reporter binding; conditions: input ligand: none
What apparent KD of MS2 coat protein was measured for each of the following?
Express your answer as a number followed by its unit.

Sure, the documented apparent KD of MS2 coat protein for AAACAGGGAGGAUAUACAUGAGGAUCACCCAUGUUCGAGCGUCCUUGAGCUACCUCAGGUAGAAGGCCCAAAAG [Qubeon] (Eterna round: R97, puzzle: Exclusion 3) is 32.9 nM

Notebook: UAGUUAAACACAGGAUAUCGCCUCUUAUUACAUGAGGAUCACCCAUGUUUAGUUAGUUACAUGUUCGAGAAGGGUGAAGUAGUU [JR_ExcNG2_Sub041] (Eterna round: R96, puzzle: Exclusion NG 2) , apparent KD of MS2 coat protein read as 555 nM

Reported apparent KD of MS2 coat protein for GAUCGACAUGAGGAUCACCCAUGUCAGGAUAUCGUCACUGGAGCCUCGGCUCCAGUGACGAGAAGGGACAUAAU [E1/13-A2] (Eterna round: R97, puzzle: Exclusion 1) was 39.4 nM

----------
tested on: MS2 coat protein; experiment: apparent KD of MS2 coat protein; designed switch direction (-1 OFF switch, 1 ON switch): -1; higher = weaker reporter binding; conditions: input ligand: FMN 200 uM
So I've got a bunch of sequences here, and I need their apparent KD of MS2 coat protein values.
Enter your answer as a number in nM; do not include the unit.

The sequence identified as AGUACUAACACGUGAGUGUUAGUACAAUAAGCUUGUGAAACAUGAGGAUCACCCAUGUCCUCAUAAGCUCGUCUUAU [salish99_TOv2_r3_061] (Eterna round: R96, puzzle: Sensor v3, turn-off variant 2) registered its apparent KD of MS2 coat protein at 16.5

Recorded apparent KD of MS2 coat protein (sequence UUAAGUAUAGAGGAUAUAUAAUAUUUAUUAACUAUAGAAGGCUAUACAUGAGGAUCACCCAUGUAUAUUGGGAU [JR_Ex6_Sub067] (Eterna round: R97, puzzle: Exclusion 6) ): 59.1

Sample GCUGGACGAGGAUAUGCAUUCGUGCUUCGGCACGUAAGGUCACAUGAGGAUCACCCAUGUAGAAGGUGUCCAGC [E2/6-B2] (Eterna round: R97, puzzle: Exclusion 2) ; apparent KD of MS2 coat protein observed: 24.1

Short answer for GCCUUAUCCGUCAGGAUAUACAGCCGCUCGUUGUUGUAGAAGGGACAUGAGGAUCACCCAUGUACGUACCAUUG [alecazam4] (Eterna round: R97, puzzle: Brourd's mod of Exclusion 4) : apparent KD of MS2 coat protein was 27.2

apparent KD of MS2 coat protein in this record for UUUUACAUGCUGAGAUCCUACAUGAGGAUCACCCAUGUGGUCCGGUGACUUUUGUCACCGGAUUUUGCUCGUCUUGU [salish99_S_TOV1_R5_101] (Eterna round: R97, puzzle: Sensor, turn-off variant 1) : 84.8

Just for reference, the supplement of paper PMC9170038 is where these values come from.
